Item-by-item account of Rate
- Tested on: Cat1 S1 fur extract proteolytic activity
- assay-comment: Proteolytic activity of fur extract against NHMec substrates
- Type: biochemical, cat
- test-parameters: sample Cat1 S1, 5 μM substrate, 37° C., pH 7.5
*1 amine or outer side, *2 acyl side, *3 side chain or, on linkers, in order; H or OH if unused. Where a SMILES comes first, the peptide text is derived from it. [ ]: non-standard residue; d: D form. The star is where a group is joined. AMC = Cc1cc(=O)oc2cc(N*)ccc12; pGlu = O=C1CC[C@@H](C(=O)O)N1; Suc = O=C(CCC(=O)[*:2])[*:1]

compound	Rate / nM/min
Cc1cc(=O)oc2cc(NC(=O)[C@H](CCCN=C(N)N)NC(=O)[C@H](CCCCN)NC(=O)[C@@H](NC(=O)[C@H](CCCN=C(N)N)NC(=O)[C@@H]3CCC(=O)N3)[C@@H](C)O)ccc12 [Pyr-Arg-Thr-Lys-Arg-NHMec] ([pGlu]RTKR-{AMC})	0.58
Cc1cc(=O)oc2cc(NC(=O)[C@H](CCCN=C(N)N)NC(=O)CNC(=O)CNC(=O)OCc3ccccc3)ccc12	0.87
Cc1cc(=O)oc2cc(NC(=O)[C@H](Cc3ccccc3)NC(=O)[C@@H]3CCCN3C(=O)[C@H](C)NC(=O)[C@H](C)NC(=O)CCC(=O)O)ccc12 [Suc-Ala-Ala-Pro-Phe-NHMec] (Suc-AAPF-{AMC})	0.04

* * *

- target-under-test: Cat1 S3 fur extract proteolytic activity
- assay-comment: Determination of Ki for the inhibition of Cat1 S3 by leupeptin
- test-parameters: found using the Enzfitter software package; read-out: Kl for the inhibition of Cat1 S3
pKi: −log10 of the molar value.
endpoint-name: pKi

mol-smiles	endpoint-name	quantitative-result
CC(=O)N[C@@H](CC(C)C)C(=O)N[C@@H](CC(C)C)C(=O)N[C@H](C=O)CCCNC(=N)N	pKi	8.58

* * *

# % Inhibition annotations
- Tested on: Cat1 S3 fur extract proteolytic activity
- assay-comment: Inhibition of the proteolytic activity in animal fur by proteinase inhibitors
- Format: biochemical, cat
- test-parameters: Cat1 S3, 10 μM inhibitor, substrate 1 Z-Gly-Gly-Arg-NHMec
Where a SMILES comes first, the peptide text is derived from it. The star is where a group is joined. CH2Cl = ClC*
endpoint-name: % Inhibition (%)

molecule	quantitative-result
CC(=O)N[C@@H](CC(C)C)C(=O)N[C@@H](CC(C)C)C(=O)N[C@H](C=O)CCCNC(=N)N	100
CC(C)C[C@H](NC(=O)[C@H]1O[C@@H]1C(=O)O)C(=O)NCCCCN=C(N)N (relative stereo)	20.4
O=c1oc(Cl)c(Cl)c2ccccc12	35.4
NC(N)=NCCC[C@H](NC(=O)CNC(=O)[C@@H](N)CCC(=O)O)C(=O)CCl [H-Glu-Gly-Arg-chloromethane] (H-Glu-Gly-Arg-CH2Cl)	98.7
N=C(N)SCCCOc1oc(=O)c2cc(N)ccc2c1Cl	100
